Values compiled from ChEMBL document CHEMBL1132482.

Target: Protein farnesyltransferase (Rattus norvegicus, UniProt Q02293+Q04631)
Experiment: In vitro inhibitory activity against Farnesyltransferase (FTase)
Task for the reader: assign each of the following compounds its reported log10(IC50).
Friendly reminder: values = log10 of IC50, unit nM.

Check out these entries, answers already filled in.
- Smi: "CSCC[C@H](NC(=O)c1ccc(CN[C@H](CO)CC2CCCCC2)cc1-c1ccccc1)C(=O)O"
  System: "Protein farnesyltransferase (Rattus norvegicus, UniProt Q02293+Q04631)"
  log10(IC50): 0.90
- Smi: "CSCC[C@H](NC(=O)c1ccc(CN[C@H](CO)C2CCCCC2)cc1-c1ccccc1C)C(=O)O"
  System: "Protein farnesyltransferase (Rattus norvegicus, UniProt Q02293+Q04631)"
  log10(IC50): 0.60
- Smi: "CSCC[C@H](NC(=O)c1ccc(CN[C@H](CO)Cc2ccccc2)cc1-c1ccccc1C)C(=O)O"
  System: "Protein farnesyltransferase (Rattus norvegicus, UniProt Q02293+Q04631)"
  log10(IC50): 0.66
- Smi: "CSCC[C@H](NC(=O)c1ccc(CN[C@H](C)CC2CCCCC2)cc1-c1ccccc1C)C(=O)O"
  System: "Protein farnesyltransferase (Rattus norvegicus, UniProt Q02293+Q04631)"
  log10(IC50): -0.15
- Smi: "CSCC[C@H](NC(=O)c1ccc(CN[C@@H](CO)C2CCCCC2)cc1-c1ccccc1C)C(=O)O"
  System: "Protein farnesyltransferase (Rattus norvegicus, UniProt Q02293+Q04631)"
  log10(IC50): 1.00
- Smi: "CCS(=O)(=O)C[C@H](CC1CCCCC1)NCc1ccc(C(=O)N[C@@H](CCS(C)(=O)=O)C(=O)O)c(-c2ccccc2C)c1"
  System: "Protein farnesyltransferase (Rattus norvegicus, UniProt Q02293+Q04631)"
  log10(IC50): 0.08
- Smi: "CSCC[C@H](NC(=O)c1ccc(CN[C@H](/C=C/CC(C)C)CC2CCCCC2)cc1-c1ccccc1C)C(=O)O"
  System: "Protein farnesyltransferase (Rattus norvegicus, UniProt Q02293+Q04631)"
  log10(IC50): -0.66
- Smi: "CSCC[C@H](NC(=O)c1ccc(CN[C@H](CSc2ccccc2C)CC2CCCCC2)cc1-c1ccccc1C)C(=O)O"
  System: "Protein farnesyltransferase (Rattus norvegicus, UniProt Q02293+Q04631)"
  log10(IC50): -0.38

Lab note: each compound below needs its log10(IC50) filled in.
1. CSCC[C@H](NC(=O)c1ccc(CN[C@@H](CO)CC2CCCCC2)cc1-c1ccccc1C)C(=O)O
2. CSCC[C@H](NC(=O)c1ccc(CN[C@H](CSC(C)(C)C)CC2CCCCC2)cc1-c1ccccc1C)C(=O)O

[1.08, -0.22]

====

I'd be grateful if you could share measured pIC50 for these entries.
Molecular target: Protein farnesyltransferase (Rattus norvegicus, UniProt Q02293+Q04631)
Assay: In vitro inhibitory activity against Farnesyltransferase (FTase)
Answers are plain numbers, as −log10 of the molar value.

Example compounds with recorded pIC50:
- Smi: "CCS(=O)(=O)C[C@H](CC1CCCCC1)NCc1ccc(C(=O)N[C@@H](CCSC)C(=O)O)c(-c2ccccc2C)c1"
  pIC50: 9.85
- Smi: "CSCC[C@H](NC(=O)c1ccc(CN(C)CCC2CCCCC2)cc1-c1ccccc1C)C(=O)O"
  pIC50: 9.06
- Smi: "CC[C@H](CC1CCCCC1)NCc1ccc(C(=O)N[C@@H](CCSC)C(=O)O)c(-c2ccccc2C)c1"
  pIC50: 9.15

Please go through the list and note pIC50 for each compound.
1. CSCC[C@H](NC(=O)c1ccc(CN[C@H](CCCC(C)C)CC2CCCCC2)cc1-c1ccccc1C)C(=O)O
2. CCSC[C@H](CC1CCCCC1)NCc1ccc(C(=O)N[C@@H](CCSC)C(=O)O)c(-c2ccccc2C)c1

[9.55, 9.70]

Field: pIC50. Fill in for each record below.
1. CSCC[C@H](NC(=O)c1ccc(CN[C@H](CSC2CCCCC2)CC2CCCCC2)cc1-c1ccccc1C)C(=O)O
2. CSCC[C@H](NC(=O)c1ccc(CN(CCC2CCCCC2)C(=O)c2ccccc2)cc1-c1ccccc1C)C(=O)O
3. CSCC[C@H](NC(=O)c1ccc(CN[C@H](CSc2ccccc2)CC2CCCCC2)cc1-c1ccccc1C)C(=O)O

[9.39, 8.96, 9.70]

// each listed compound needs a value for pIC50
1. CSCC[C@H](NC(=O)c1ccc(CN[C@H](CO)CC2CCCCC2)cc1-c1ccccc1C)C(=O)O
2. CSCC[C@H](NC(=O)c1ccc(CN(CCC2CCCCC2)Cc2ccccc2)cc1-c1ccccc1C)C(=O)O

1. 9.80
2. 8.46
